Numbers sourced from patent US8318731B2.

Molecular target: PLK4 (h) (Homo sapiens, UniProt O00444)
Sequence (O00444 whole entry): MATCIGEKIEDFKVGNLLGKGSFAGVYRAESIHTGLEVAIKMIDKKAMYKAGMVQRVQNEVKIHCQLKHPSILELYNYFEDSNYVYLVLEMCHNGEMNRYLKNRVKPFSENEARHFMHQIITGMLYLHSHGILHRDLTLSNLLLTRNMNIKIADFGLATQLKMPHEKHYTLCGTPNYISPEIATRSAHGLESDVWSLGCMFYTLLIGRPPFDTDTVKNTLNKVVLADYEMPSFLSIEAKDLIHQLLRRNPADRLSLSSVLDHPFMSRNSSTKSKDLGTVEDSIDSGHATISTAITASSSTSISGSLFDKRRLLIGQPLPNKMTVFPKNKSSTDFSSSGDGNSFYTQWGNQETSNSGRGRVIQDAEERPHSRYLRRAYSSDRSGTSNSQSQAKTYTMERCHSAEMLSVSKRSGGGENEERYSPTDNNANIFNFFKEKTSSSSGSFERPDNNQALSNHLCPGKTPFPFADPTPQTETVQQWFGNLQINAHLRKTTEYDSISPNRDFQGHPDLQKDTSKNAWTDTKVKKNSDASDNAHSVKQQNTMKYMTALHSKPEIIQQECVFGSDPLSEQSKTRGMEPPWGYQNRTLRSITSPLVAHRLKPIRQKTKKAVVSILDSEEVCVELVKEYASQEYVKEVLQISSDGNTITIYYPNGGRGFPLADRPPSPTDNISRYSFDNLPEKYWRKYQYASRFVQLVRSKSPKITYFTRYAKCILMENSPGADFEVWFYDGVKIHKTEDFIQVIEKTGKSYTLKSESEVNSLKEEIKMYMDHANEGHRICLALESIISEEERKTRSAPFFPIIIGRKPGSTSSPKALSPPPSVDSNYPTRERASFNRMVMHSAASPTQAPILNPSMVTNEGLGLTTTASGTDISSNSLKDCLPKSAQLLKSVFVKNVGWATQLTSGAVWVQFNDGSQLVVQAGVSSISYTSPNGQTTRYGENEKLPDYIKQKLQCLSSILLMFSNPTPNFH
Experiment: PLK-4 human kinase scintillation proximity assay (SPA)
Format: biochemical
Settings: 1 μM ATP, 60 minutes at r.t., read-out: PLK4 pIC50 (converted)
Protocol: The in vitro inhibition of a panel of kinases was assessed using either the scintillation proximity assay (SPA) as described by Cook, N. D. et al., Advances in Experimental Medicine and Biology (1991), 36; p. 525-528. In the SPA technology the activity of the kinase of interest is measured using an appropriate biotinylated substrate that is incubated with the aforementioned kinase protein in the presence of (^33P) radiolabeled ATP. […] The scintillation intensity is detected by imaging on Leadseeker. […]
readout label: IC50 (nM)

Below, 3 compounds whose answers are already recorded.
| compound | IC50, nM |
| --- | --- |
| CN1CCCN(C)C(=O)COc2cc(ccc2NC(=O)NC2CCCC2)Nc2ncnc3[nH]cc(c23)C1 [Compound 66] | 39.8 |
| COc1cc2cc(c1OC)OCCCC(=O)N(C)CCCN(C)Cc1c[nH]c3ncnc(c13)N2 [Compound 69] | 2000 |
| COc1ccc(OCCCOc2ccc3cc2OCC(=O)N(C)CCCN(C)Cc2c[nH]c4ncnc(c24)N3)cc1 [Compound 78] | 50.1 |

P. CN1CCCN(C)C(=O)COc2cc(ccc2OCC(=O)NC2CCCC2)Nc2ncnc3[nH]cc(c23)C1 [Compound 91]
Q. CCCOc1ccc2cc1OCC(=O)N(C)CCCN(C)Cc1c[nH]c3ncnc(c13)N2 [Compound 101]
Enquiry: Of the two listed items, P and Q , which carries the larger IC50 figure? // output: label of the selected item
Return: Q

a. CN1CCCN(C)C(=O)CCCOc2cc(ccc2Cl)Nc2ncnc3[nH]cc(c23)C1 [Compound 43]
b. CN1CCCN(C)C(=O)COc2cc(ccc2NC(=O)NCC2CC2)Nc2ncnc3[nH]cc(c23)C1 [Compound 127]
c. COc1cc(NC(=O)COc2ccc3cc2OCC(=O)N(C)CCCN(C)Cc2cn(C)c4ncnc(c24)N3)cc(OC)c1OC [Compound 145]
Enquiry: Ordering criterion: IC50; begin with the maximum. Put the labels in the order asked and list them.
Return: c, a, b

P. CCN(CCOC)CCOc1ccc2cc1OCC(=O)N(C)CCCN(C)Cc1c[nH]c3ncnc(c13)N2 [Compound 77]
Q. CN1CCN(c2ccc3cc2OCCCCC(=O)N2CCN(CC2)Cc2c[nH]c4ncnc(c24)N3)CC1 [Compound 108]
R. COc1ccc2cc1OCC(=O)N(C)CCCN(CC1CC1)Cc1c[nH]c3ncnc(c13)N2 [Compound 59]
S. CN1CCCN(C)C(=O)CCCCCOc2cc(ccc2Cl)Nc2ncnc3[nH]cc(c23)C1 [Compound 19]
Enquiry: Ordering criterion: IC50; begin with the maximum. Put the labels in the order asked and list them.
Return: Q, S, R, P

###

Test system: A2780
Test: Cellular proliferation assay (Alamar blue), A2780
Assay type: cell-based
Conditions: Homo sapiens, A2780, A2780 cells; 10% FCS; 72 h with compound; Alamar blue 24 h; read-out: pIC50 A2780 (converted)
Protocol: Cellular proliferation of these compounds was tested on a panel of different cell lines in the presence of 10% FCS serum (37° C. and 5% (v/v) CO2). In a first step these cells were seeded and incubated for 24 hours in the absence of compound. In the second step the cells were incubated for 72 hours with the compounds to be tested for 72 hours. The viable cell number was finally assessed in a standard Alamar blue cell viability assay. […]
readout label: IC50 (µM)

A. CN1CCCN(C)C(=O)COc2cc(ccc2OCCO)Nc2ncnc3[nH]cc(c23)C1 [Compound 80]
B. CN1CCN(C)C(=O)CCCOc2cccc(c2)Nc2ncnc3[nH]cc(c23)C1 [Compound 31]
Enquiry: Just tell me: smaller IC50 value, A or B ? // output: label of the selected item
Return: B

###

Tested on: PC3
Test: Cellular proliferation assay (Alamar blue), PC3
Assay type: cell-based
Details: Homo sapiens, PC-3, PC-3 cells; 10% FCS; 72 h with compound; Alamar blue 24 h; read-out: pIC50 PC-3 (converted)
readout label: IC50 (µM)

| compound | IC50 / µM |
| --- | --- |
| CN1CCCCN(C)C(=O)COc2cc(ccc2OCC(=O)Nc2ccc(Cl)cc2)Nc2ncnc3[nH]cc(c23)C1 [Compound 133] | 2.51 |

I. CN1CCCN(C)C(=O)Cc2cccc(c2)Nc2ncnc3[nH]cc(c23)C1 [Compound 24]
II. CN1CCCN(C)C(=O)COc2cc(ccc2OCCCN2CCOCC2)Nc2ncnc3[nH]cc(c23)C1 [Compound 137]
Enquiry: Just tell me: smaller IC50 value, I or II ? // output: label of the selected item
Return: II

###

Target: PLK4 (h) (Homo sapiens)
Test: PLK-4 human kinase scintillation proximity assay (SPA)
Type: biochemical
Conditions: 1 μM ATP, 60 minutes at r.t., read-out: PLK4 pIC50 (converted)
readout label: IC50 (nM)

Below, 5 compounds whose answers are already recorded.
| smiles data | unit name | observed measurement |
| --- | --- | --- |
| CN1CCN(C)C(=O)CCCOc2cc(ccc2N2CCOCC2)Nc2ncnc3[nH]cc(c23)C1 | nM | 1260 |
| COc1ccc2cc1OCCCCCC(=O)N(C)CCCN(C)Cc1c[nH]c3ncnc(c13)N2 | nM | 398 |
| CN1CCCN(C)C(=O)COc2cc(ccc2Cl)Nc2ncnc3c2c(cn3C)C1 | nM | 631 |
| COc1ccc2cc1OCC(=O)N1CCC[C@H]1CN(C)CCCc1c[nH]c3ncnc(c13)N2 | nM | 6310 |
| COc1cc2cc(c1OC)OCC(=O)N(C)CCN(C)Cc1c[nH]c3ncnc(c13)N2 | nM | 5010 |

P. COc1ccc2cc1OCC(=O)NCC1CN(Cc3c[nH]c4ncnc(c34)N2)C1
Q. CC(C)NC(=O)Nc1ccc2cc1OCC(=O)N(C)CCCN(C)Cc1c[nH]c3ncnc(c13)N2
Enquiry: Of the two listed items, P and Q , which carries the larger IC50 figure? // output: label of the selected item
Return: P
(P: 501 nM, Q: 200 nM)

###

Test system: H1299
Assay: Cellular proliferation assay (Alamar blue), H1299
Type: cell-based
Conditions: Homo sapiens, NCI-H1299, H1299 cells; 10% FCS; 72 h with compound; Alamar blue 4 h; read-out: pIC50 H1299 (converted)
Known IC50 of a selection of molecules

| smiles data | IC50 |
| --- | --- |
| CN1CCCN(C)C(=O)CCCOc2cc(ccc2N2CCOCC2)Nc2ncnc3[nH]cc(c23)C1 | > 10 µM |

Enquiry: Please report IC50 for the following molecule: `CCOCCOc1ccc2cc1OCC(=O)N(C)CCCNCc1c[nH]c3ncnc(c13)N2`
Return: > 10 µM

Enquiry: Please report IC50 for the following molecule: `COc1ccc2cc1CN(C)CC(=O)N(C)CCCc1c[nH]c3ncnc(c13)N2`
Return: > 10 µM

Enquiry: Please report IC50 for the following molecule: `COc1ccc2cc1N(C)CC(=O)N(C)CCCN(C)Cc1c[nH]c3ncnc(c13)N2`
Return: 3.98 µM

###

Test system: H1299
Experiment: Cellular proliferation assay (Alamar blue), H1299
Assay type: cell-based
Settings: Homo sapiens, NCI-H1299, H1299 cells; 10% FCS; 72 h with compound; Alamar blue 4 h; read-out: pIC50 H1299 (converted)
readout label: IC50 (µM)

Below, 2 molecules whose answers are already recorded.
| smiles data | measured on | IC50 / µM |
| --- | --- | --- |
| CN1CCCN(C)C(=O)COc2cc(ccc2Br)Nc2ncnc3[nH]cc(c23)C1 | H1299 | 0.794 |
| CN1CCCN(C)C(=O)COc2cc(ccc2N2CCCC2)Nc2ncnc3[nH]cc(c23)C1 | H1299 | 2 |

A. COCCN(CCOc1ccc2cc1OCC(=O)N(C)CCCN(C)Cc1c[nH]c3ncnc(c13)N2)C(C)C
B. CN1CCCN(C)C(=O)COc2cc(ccc2OCC(=O)NC2CC2)Nc2ncnc3[nH]cc(c23)C1
C. CN1CCCN(C)C(=O)COc2cc(ccc2OCCOc2ccc(Cl)cc2)Nc2ncnc3[nH]cc(c23)C1
Enquiry: Ordering criterion: IC50; begin with the maximum. Put the labels in the order asked and list them.
Return: B, A, C
(B: 6.31 µM, A: 3.16 µM, C: 0.398 µM)

###

Test system: HCT-116
Test: Cellular proliferation assay (Alamar blue), HCT-116
Format: cell-based
Conditions: Homo sapiens; HCT-116 cells; 10% FCS; 72 h with compound; Alamar blue 4 h; read-out: pIC50 HCT-116 (converted)
readout label: IC50 (µM)

Below, 5 molecules whose answers are already recorded.
| smiles data | measured on | unit name | IC50 |
| --- | --- | --- | --- |
| CN1CCN(C)C(=O)COc2cc(ccc2Cl)Nc2ncnc3[nH]cc(c23)C1 | HCT-116 | µM | 5.01 |
| CN1CCCN(C)C(=O)COc2cc(ccc2OCCOC2CCCC2)Nc2ncnc3[nH]cc(c23)C1 | HCT-116 | µM | 0.0631 |
| CC(C)Oc1ccc2cc1OCC(=O)N(C)CCCN(C)Cc1c[nH]c3ncnc(c13)N2 | HCT-116 | µM | 1.58 |
| CN1CCCN(C)C(=O)Cc2cccc(c2)Nc2ncnc3[nH]cc(c23)C1 | HCT-116 | µM | 3.98 |
| CN1CCCN(C)C(=O)COc2cccc(c2)Nc2ncnc3[nH]cc(c23)C1 | HCT-116 | µM | 0.398 |

A. CCOCCOc1ccc2cc1OCC(=O)N(C)CCCN(C)Cc1cn(C)c3ncnc(c13)N2
B. CN1CCCN(C)C(=O)COc2cc(ccc2OCCSc2ccc(Cl)cc2)Nc2ncnc3[nH]cc(c23)C1
Enquiry: Of the two listed items, A and B , which carries the larger IC50 figure? // output: label of the selected item
Return: A
(A: 0.251 µM, B: 0.0631 µM)

a. COc1ccc(OCCOc2ccc3cc2OCC(=O)N(C)CCCN(C)Cc2c[nH]c4ncnc(c24)N3)cc1
b. CN1CCN(C)C(=O)CCCOc2cccc(c2)Nc2ncnc3[nH]cc(c23)C1
Enquiry: Of the two listed items, a and b , which carries the larger IC50 figure? // output: label of the selected item
Return: b

P. CN1CCCN(C)C(=O)COc2cc(ccc2NC(=O)Nc2ccc(Cl)cc2)Nc2ncnc3[nH]cc(c23)C1
Q. CN1CCCN(C)C(=O)COc2cc(ccc2NC(=O)Nc2cc(Cl)cc(Cl)c2)Nc2ncnc3[nH]cc(c23)C1
R. CN1CC(=O)NCCOc2cccc(c2)Nc2ncnc3[nH]cc(c23)C1
S. CN1CCCCN(C)C(=O)COc2cc(ccc2OCC(=O)Nc2ccc(Cl)cc2)Nc2ncnc3[nH]cc(c23)C1
Enquiry: Rank the items in ascending order with respect to IC50. Put the labels in the order asked and list them.
Return: S, P, Q, R
(S: 0.0794 µM, P: 0.2 µM, Q: 0.794 µM, R: 1.26 µM)

a. CCOCCOc1ccc2cc1OCC(=O)N(C)CCCNCc1c[nH]c3ncnc(c13)N2
b. CN1CCCN(C)C(=O)CCc2cccc(c2)Nc2ncnc3[nH]cc(c23)C1
Enquiry: Just tell me: smaller IC50 value, a or b ? // output: label of the selected item
Return: a

a. COc1ccc(OCCCOc2ccc3cc2OCC(=O)N(C)CCCN(C)Cc2c[nH]c4ncnc(c24)N3)cc1
b. CN1CCN(c2ccc3cc2OCCCC(=O)N(C)CCCN(C)Cc2c[nH]c4ncnc(c24)N3)CC1
Enquiry: Just tell me: smaller IC50 value, a or b ? // output: label of the selected item
Return: a
(a: 1.26 µM, b: 6.31 µM)
